test_details: folding enthalpy; higher = less favourable; fluorescence melt of hairpins on a sequencing array, two-state fit
condition_notes: sodium 0.088 M
experimental_readout: folding enthalpy (kcal/mol)
Give just the number in kcal/mol; leave the unit off.

GCGCAGCGAAAGCGGTGC ((.(.((....)).).)) ... -16.5
GATCGGGTTGCCGATC ((((((....)))))) ... -31.1
GCGAACGGTCGC ((((....)))) ... -30.9
GGCCCCGGAAACGGAGCC (((.(((....))).))) ... -31.1

# get_value(readout='folding enthalpy', item= GATCGTCTAGACGATC ((((((....)))))) ) -37.2

# get_value(readout='folding enthalpy', item= GGGGCTCGAAAGAGTCCC (((.(((....))).))) ) -42.8
